# test.protocol: Antioxidant activity assessed as inhibition of microsomal lipid peroxidation at 200 ug/mL
# Type: functional
# Parameters: scale not given: the % may be the effect or the level left
Measured Activity, listed per entry.

[
  {
    "molecule": "COC(=O)C1=C(C)N(c2cccc(Cl)c2)C=C(C)C1c1ccccc1 (stereo unspecified)",
    "units": "%",
    "Activity": -22.8
  },
  {
    "molecule": "CCOC(=O)C1=C(C)N(c2ccc(F)cc2)C=CC1c1ccccc1 (stereo unspecified)",
    "units": "%",
    "Activity": -35.8
  },
  {
    "molecule": "COC(=O)C1=C(C)N(c2ccccc2)C=CC1c1ccccc1 (stereo unspecified)",
    "units": "%",
    "Activity": -37.3
  },
  {
    "molecule": "CCOC(=O)C1=C(C)N(c2ccc(Cl)cc2)C=CC1c1ccccc1 (stereo unspecified)",
    "units": "%",
    "Activity": -34.4
  },
  {
    "molecule": "CCOC(=O)C1=C(C)N(c2ccccc2)C=CC1c1ccccc1 (stereo unspecified)",
    "units": "%",
    "Activity": -37.1
  },
  {
    "molecule": "CCOC(=O)C1=C(C)N(c2ccc(Br)cc2)C=CC1c1ccccc1 (stereo unspecified)",
    "units": "%",
    "Activity": -32.1
  }
]
